# Test system: 454973-116-R2-J3-PDC spheroids, viability, % test/control
# procedureDetails: Anticancer human tumor 454973-116-R2-J3-PDC patient-derived pancreatic carcinoma cell line growth inhibition [GQUAD]; active means viability on the fitted dose curve at most 10% of control; inactive means the rest
# conditionDescription: second compound 1 µM; first compound 1 µM; spheroids with HUVEC and MSC
Outcome field: choose from active, inactive

Record excerpt, results attached:
>  <compound>
CCCS(=O)(=O)Nc1ccc(F)c(C(=O)c2c[nH]c3ncc(-c4ccc(Cl)cc4)cc23)c1F + CN(C)c1ccc(Nc2c3ccc(NC(=O)CCN4CCCC4)cc3nc3cc(NC(=O)CCN4CCCC4)ccc23)cc1

>  <measurementTarget>
454973-116-R2-J3-PDC spheroids, viability, % test/control

>  <discreteLabel>
inactive

$$$$
>  <compound>
Cc1cccc(N(C)C(=O)C2C(O)CCN2c2nc(C)cc(C(F)(F)F)c2C#N)c1 (configuration not stated) + CN(C)c1ccc(Nc2c3ccc(NC(=O)CCN4CCCC4)cc3nc3cc(NC(=O)CCN4CCCC4)ccc23)cc1

>  <measurementTarget>
454973-116-R2-J3-PDC spheroids, viability, % test/control

>  <discreteLabel>
inactive

$$$$
>  <compound>
Cc1cccc(N(C)C(=O)C2C(O)CCN2c2nc(C)cc(C(F)(F)F)c2C#N)c1 (configuration not stated) + Cc1[nH]c2ccc(F)cc2c1-c1nc2c3cccnc3c3ncccc3c2[nH]1

>  <measurementTarget>
454973-116-R2-J3-PDC spheroids, viability, % test/control

>  <discreteLabel>
inactive

$$$$

In: # fetch the recorded call for C=CCn1c(=O)c2cnc(Nc3ccc(N4CCN(C)CC4)cc3)nc2n1-c1cccc(C(C)(C)O)n1 + CN(C)c1ccc(Nc2c3ccc(NC(=O)CCN4CCCC4)cc3nc3cc(NC(=O)CCN4CCCC4)ccc23)cc1 here
Out: active

In: Next compound: CCCS(=O)(=O)Nc1ccc(F)c(C(=O)c2c[nH]c3ncc(-c4ccc(Cl)cc4)cc23)c1F + Cc1[nH]c2ccc(F)cc2c1-c1nc2c3cccnc3c3ncccc3c2[nH]1
Out: inactive

In: And then O=c1[nH]cc(F)c(=O)[nH]1 + Cc1[nH]c2ccc(F)cc2c1-c1nc2c3cccnc3c3ncccc3c2[nH]1 , what is it?
Out: inactive

In: Next compound: C=CC(=O)N1CCN(c2nc(=O)n(-c3c(C)ccnc3C(C)C)c3nc(-c4c(O)cccc4F)c(F)cc23)C(C)C1 (configuration not stated) + Cc1cnc(CNC(=O)c2c(=O)c3ccc(N4CCCN(C)CC4)nc3n3c2sc2ccccc23)cn1
Out: inactive

* * *

# Test system: 454973-116-R2-J3-PDC spheroids, viability, % test/control
# procedureDetails: Anticancer human tumor 454973-116-R2-J3-PDC cell line growth inhibition [GQUAD];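 further: spheroids exposed to compounds for seven days; 100% = DMSO vehicle control viability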
# conditionDescription: second compound 10 µM; first compound 0.0316 µM; active compounds read low; spheroids with HUVEC and MSC
recordedMetric: viability, T/C

In: Given the entry CC[C@@]1(O)C(=O)OCc2c1cc1n(c2=O)Cc2cc3c(CN(C)C)c(O)ccc3nc2-1 + CN(C)c1ccc(Nc2c3ccc(NC(=O)CCN4CCCC4)cc3nc3cc(NC(=O)CCN4CCCC4)ccc23)cc1 , what viability, T/C was observed with 454973-116-R2-J3-PDC spheroids, viability, % test/control?
Out: 53.6%

In: Item: O=C(c1cc(Cc2n[nH]c(=O)c3ccccc23)ccc1F)N1CCN(C(=O)C2CC2)CC1 + Cc1cnc(CNC(=O)c2c(=O)c3ccc(N4CCCN(C)CC4)nc3n3c2sc2ccccc23)cn1
Out: 0.27%

In: Entry COc1ncnc(C2CC2)c1-c1ncc2cnn(Cc3ccc(-c4nc(C(F)(F)F)cn4C(C)C)cc3)c2n1 + Cc1cnc(CNC(=O)c2c(=O)c3ccc(N4CCCN(C)CC4)nc3n3c2sc2ccccc23)cn1 please
Out: 0.22%

The reported numbers originate from PubChem BioAssay AID2060508.
